Test system: 926638-142-R-J1-PDC complex spheroid viability
procedure details: Anticancer human tumor 926638-142-R-J1-PDC patient-derived endometrial carcinoma cell line growth inhibition [POLQ]
condition: second compound 3.16 µM; first compound 0.0316 µM; active compounds read low
property measured: viability, T/C

- COc1cc2cc(C(=O)CCC(=O)O)sc2cc1OC + Nc1ccc(C#CCN(C(=O)Cc2ncc(C(F)(F)F)cc2C(F)(F)F)c2ccc(F)cc2)nn1: 110%
- O=c1[nH]cc(F)c(=O)[nH]1 + COC1C(OC(N)=O)C(O)C(Oc2ccc3c(O)c(NC(=O)c4ccc(O)c(CC=C(C)C)c4)c(=O)oc3c2C)OC1(C)C: 102%
- CC[C@@]1(O)C(=O)OCc2c1cc1n(c2=O)Cc2cc3c(CN(C)C)c(O)ccc3nc2-1 + COC1C(OC(N)=O)C(O)C(Oc2ccc3c(O)c(NC(=O)c4ccc(O)c(CC=C(C)C)c4)c(=O)oc3c2C)OC1(C)C: 72.9%

====

Tested on: 926638-142-R-J1-PDC complex spheroid viability
procedure details: Anticancer human tumor 926638-142-R-J1-PDC cell line growth inhibition [POLQ];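 further: spheroids exposed to drugs for one week before readout; percent viability relative to DMSO vehicle control wells set as 100%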
condition: second compound 0.0316 µM; first compound 0.316 µM; active compounds read low
I'd appreciate it if you marked entries fulfilled when viability, T/C is lower than 80% and not fulfilled when it is not.

- CNCc1ccc(-c2[nH]c3cc(F)cc4c3c2CCNC4=O)cc1 + COC1C(OC(N)=O)C(O)C(Oc2ccc3c(O)c(NC(=O)c4ccc(O)c(CC=C(C)C)c4)c(=O)oc3c2C)OC1(C)C: not fulfilled
- CC1COCCN1c1cc(C2(O)CC3CCC(C2)O3)c2cnn(-c3ccn[nH]3)c2n1 (configuration not stated) + COC1C(OC(N)=O)C(O)C(Oc2ccc3c(O)c(NC(=O)c4ccc(O)c(CC=C(C)C)c4)c(=O)oc3c2C)OC1(C)C: fulfilled
- CCc1cc2c(N3CCc4c(cc(Cn5ccnc5)cc4-c4cn(C)nc4C(F)(F)F)C3=O)ccnc2c(OC)n1 + COC1C(OC(N)=O)C(O)C(Oc2ccc3c(O)c(NC(=O)c4ccc(O)c(CC=C(C)C)c4)c(=O)oc3c2C)OC1(C)C: fulfilled
- CC1COCCN1c1cc(C2(S(C)(=N)=O)CC2)nc(-c2ccnc3[nH]ccc23)n1 (configuration not stated) + COC1C(OC(N)=O)C(O)C(Oc2ccc3c(O)c(NC(=O)c4ccc(O)c(CC=C(C)C)c4)c(=O)oc3c2C)OC1(C)C: not fulfilled
- O=C(c1cc(Cc2n[nH]c(=O)c3ccccc23)ccc1F)N1CCN(C(=O)C2CC2)CC1 + Cc1cccc(N(C)C(=O)C2C(O)CCN2c2nc(C)cc(C(F)(F)F)c2C#N)c1: not fulfilled
- Nc1ccn(C2OC(CO)C(O)C2(F)F)c(=O)n1 (configuration not stated) + Nc1ccc(C#CCN(C(=O)Cc2ncc(C(F)(F)F)cc2C(F)(F)F)c2ccc(F)cc2)nn1: fulfilled
- CCc1c2c(nc3ccc(O)cc13)-c1cc3c(c(=O)n1C2)COC(=O)[C@]3(O)CC + Cc1cccc(N(C)C(=O)C2C(O)CCN2c2nc(C)cc(C(F)(F)F)c2C#N)c1: fulfilled
- CCCS(=O)(=O)Nc1ccc(F)c(C(=O)c2c[nH]c3ncc(-c4ccc(Cl)cc4)cc23)c1F + Cc1cccc(N(C)C(=O)C2C(O)CCN2c2nc(C)cc(C(F)(F)F)c2C#N)c1: not fulfilled
- O=C(Nc1ccc(O)c(NS(=O)(=O)c2ccc(F)cc2)c1)c1ccc(-c2ccccc2)cc1 + COC1C(OC(N)=O)C(O)C(Oc2ccc3c(O)c(NC(=O)c4ccc(O)c(CC=C(C)C)c4)c(=O)oc3c2C)OC1(C)C: not fulfilled
- CCc1cc2c(N3CCc4c(cc(Cn5ccnc5)cc4-c4cn(C)nc4C(F)(F)F)C3=O)cc(C)nc2c(OC)n1 + Nc1ccc(C#CCN(C(=O)Cc2ncc(C(F)(F)F)cc2C(F)(F)F)c2ccc(F)cc2)nn1: fulfilled
- C=CCn1c(=O)c2cnc(Nc3ccc(N4CCN(C)CC4)cc3)nc2n1-c1cccc(C(C)(C)O)n1 + Cc1cccc(N(C)C(=O)C2C(O)CCN2c2nc(C)cc(C(F)(F)F)c2C#N)c1: fulfilled
- CNCc1ccc(-c2[nH]c3cc(F)cc4c3c2CCNC4=O)cc1 + Cc1cccc(N(C)C(=O)C2C(O)CCN2c2nc(C)cc(C(F)(F)F)c2C#N)c1: not fulfilled
- O=C(c1cc(Cc2n[nH]c(=O)c3ccccc23)ccc1F)N1CCN(C(=O)C2CC2)CC1 + COC1C(OC(N)=O)C(O)C(Oc2ccc3c(O)c(NC(=O)c4ccc(O)c(CC=C(C)C)c4)c(=O)oc3c2C)OC1(C)C: not fulfilled
- COc1cc2cc(C(=O)CCC(=O)O)sc2cc1OC + COC1C(OC(N)=O)C(O)C(Oc2ccc3c(O)c(NC(=O)c4ccc(O)c(CC=C(C)C)c4)c(=O)oc3c2C)OC1(C)C: not fulfilled
- CC1COCCN1c1cc(C2(S(C)(=N)=O)CC2)nc(-c2ccnc3[nH]ccc23)n1 (configuration not stated) + Nc1ccc(C#CCN(C(=O)Cc2ncc(C(F)(F)F)cc2C(F)(F)F)c2ccc(F)cc2)nn1: not fulfilled

====

Test system: 926638-142-R-J1-PDC complex spheroid viability
procedure details: Anticancer human tumor 926638-142-R-J1-PDC cell line growth inhibition [POLQ];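 further: spheroids exposed to drugs for one week before readout; percent viability relative to DMSO vehicle control wells set as 100%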
condition: second compound 0.0316 µM; first compound 3.16 µM; active compounds read low
property measured: viability, T/C (%)

• COc1cccc2c1C(=O)c1c(O)c3c(c(O)c1C2=O)CC(O)(C(=O)CO)CC3OC1CC(N)C(O)C(C)O1 (stereo not given) + Nc1ccc(C#CCN(C(=O)Cc2ncc(C(F)(F)F)cc2C(F)(F)F)c2ccc(F)cc2)nn1 = 0.22
• CCCS(=O)(=O)Nc1ccc(F)c(C(=O)c2c[nH]c3ncc(-c4ccc(Cl)cc4)cc23)c1F + Nc1ccc(C#CCN(C(=O)Cc2ncc(C(F)(F)F)cc2C(F)(F)F)c2ccc(F)cc2)nn1 = 80
• CCCS(=O)(=O)Nc1ccc(F)c(C(=O)c2c[nH]c3ncc(-c4ccc(Cl)cc4)cc23)c1F + COC1C(OC(N)=O)C(O)C(Oc2ccc3c(O)c(NC(=O)c4ccc(O)c(CC=C(C)C)c4)c(=O)oc3c2C)OC1(C)C = 86.4
• COc1cc(C2c3cc4c(cc3C(OC3OC5COC(C)OC5C(O)C3O)C3COC(=O)C23)OCO4)cc(OC)c1O (stereo not given) + Cc1cccc(N(C)C(=O)C2C(O)CCN2c2nc(C)cc(C(F)(F)F)c2C#N)c1 = 56
• CCc1cc2c(N3CCc4c(cc(Cn5ccnc5)cc4-c4cn(C)nc4C(F)(F)F)C3=O)cc(C)nc2c(OC)n1 + COC1C(OC(N)=O)C(O)C(Oc2ccc3c(O)c(NC(=O)c4ccc(O)c(CC=C(C)C)c4)c(=O)oc3c2C)OC1(C)C = 33.4
• COc1cc(C2c3cc4c(cc3C(OC3OC5COC(C)OC5C(O)C3O)C3COC(=O)C23)OCO4)cc(OC)c1O (stereo not given) + COC1C(OC(N)=O)C(O)C(Oc2ccc3c(O)c(NC(=O)c4ccc(O)c(CC=C(C)C)c4)c(=O)oc3c2C)OC1(C)C = 70.1
• O=C(c1cc(Cc2n[nH]c(=O)c3ccccc23)ccc1F)N1CCN(C(=O)C2CC2)CC1 + Nc1ccc(C#CCN(C(=O)Cc2ncc(C(F)(F)F)cc2C(F)(F)F)c2ccc(F)cc2)nn1 = 81.9
• COc1cc2cc(C(=O)CCC(=O)O)sc2cc1OC + Cc1cccc(N(C)C(=O)C2C(O)CCN2c2nc(C)cc(C(F)(F)F)c2C#N)c1 = 98.3
• CC1COCCN1c1cc(C2(O)CC3CCC(C2)O3)c2cnn(-c3ccn[nH]3)c2n1 (stereo not given) + Cc1cccc(N(C)C(=O)C2C(O)CCN2c2nc(C)cc(C(F)(F)F)c2C#N)c1 = 8.43
• COc1cccc2c1C(=O)c1c(O)c3c(c(O)c1C2=O)CC(O)(C(=O)CO)CC3OC1CC(N)C(O)C(C)O1 (stereo not given) + Cc1cccc(N(C)C(=O)C2C(O)CCN2c2nc(C)cc(C(F)(F)F)c2C#N)c1 = 0.19

====

Tested on: 926638-142-R-J1-PDC complex spheroid viability
procedure details: Anticancer human tumor 926638-142-R-J1-PDC cell line growth inhibition [POLQ];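 further: spheroids exposed to drugs for one week before readout; percent viability relative to DMSO vehicle control wells set as 100%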
condition: second compound 0.0316 µM; first compound 0.01 µM; active compounds read low
property measured: viability, T/C (%)

• CCc1c2c(nc3ccc(O)cc13)-c1cc3c(c(=O)n1C2)COC(=O)[C@]3(O)CC + Nc1ccc(C#CCN(C(=O)Cc2ncc(C(F)(F)F)cc2C(F)(F)F)c2ccc(F)cc2)nn1 = 52.5
• C=CCn1c(=O)c2cnc(Nc3ccc(N4CCN(C)CC4)cc3)nc2n1-c1cccc(C(C)(C)O)n1 + Nc1ccc(C#CCN(C(=O)Cc2ncc(C(F)(F)F)cc2C(F)(F)F)c2ccc(F)cc2)nn1 = 97.9
• COc1cccc(OCCCN)c1-c1cc(Nc2cnc(C#N)cn2)n[nH]1 + Cc1cccc(N(C)C(=O)C2C(O)CCN2c2nc(C)cc(C(F)(F)F)c2C#N)c1 = 72.9
• Cn1ncnc1[C@H]1c2n[nH]c(=O)c3cc(F)cc(c23)N[C@@H]1c1ccc(F)cc1 + Nc1ccc(C#CCN(C(=O)Cc2ncc(C(F)(F)F)cc2C(F)(F)F)c2ccc(F)cc2)nn1 = 75.7
• C=CCn1c(=O)c2cnc(Nc3ccc(N4CCN(C)CC4)cc3)nc2n1-c1cccc(C(C)(C)O)n1 + COC1C(OC(N)=O)C(O)C(Oc2ccc3c(O)c(NC(=O)c4ccc(O)c(CC=C(C)C)c4)c(=O)oc3c2C)OC1(C)C = 95.1
• COc1cccc(OCCCN)c1-c1cc(Nc2cnc(C#N)cn2)n[nH]1 + Nc1ccc(C#CCN(C(=O)Cc2ncc(C(F)(F)F)cc2C(F)(F)F)c2ccc(F)cc2)nn1 = 76.4
• C=CCn1c(=O)c2cnc(Nc3ccc(N4CCN(C)CC4)cc3)nc2n1-c1cccc(C(C)(C)O)n1 + Cc1cccc(N(C)C(=O)C2C(O)CCN2c2nc(C)cc(C(F)(F)F)c2C#N)c1 = 80.1
• CCc1c2c(nc3ccc(O)cc13)-c1cc3c(c(=O)n1C2)COC(=O)[C@]3(O)CC + Cc1cccc(N(C)C(=O)C2C(O)CCN2c2nc(C)cc(C(F)(F)F)c2C#N)c1 = 43.5
• CC[C@@]1(O)C(=O)OCc2c1cc1n(c2=O)Cc2cc3c(CN(C)C)c(O)ccc3nc2-1 + COC1C(OC(N)=O)C(O)C(Oc2ccc3c(O)c(NC(=O)c4ccc(O)c(CC=C(C)C)c4)c(=O)oc3c2C)OC1(C)C = 72.3
• CCc1c2c(nc3ccc(O)cc13)-c1cc3c(c(=O)n1C2)COC(=O)[C@]3(O)CC + COC1C(OC(N)=O)C(O)C(Oc2ccc3c(O)c(NC(=O)c4ccc(O)c(CC=C(C)C)c4)c(=O)oc3c2C)OC1(C)C = 42
• Cn1ncnc1[C@H]1c2n[nH]c(=O)c3cc(F)cc(c23)N[C@@H]1c1ccc(F)cc1 + Cc1cccc(N(C)C(=O)C2C(O)CCN2c2nc(C)cc(C(F)(F)F)c2C#N)c1 = 84.9
• CC[C@@]1(O)C(=O)OCc2c1cc1n(c2=O)Cc2cc3c(CN(C)C)c(O)ccc3nc2-1 + Cc1cccc(N(C)C(=O)C2C(O)CCN2c2nc(C)cc(C(F)(F)F)c2C#N)c1 = 70.4
• CC[C@@]1(O)C(=O)OCc2c1cc1n(c2=O)Cc2cc3c(CN(C)C)c(O)ccc3nc2-1 + Nc1ccc(C#CCN(C(=O)Cc2ncc(C(F)(F)F)cc2C(F)(F)F)c2ccc(F)cc2)nn1 = 73.4
• Cn1ncnc1[C@H]1c2n[nH]c(=O)c3cc(F)cc(c23)N[C@@H]1c1ccc(F)cc1 + COC1C(OC(N)=O)C(O)C(Oc2ccc3c(O)c(NC(=O)c4ccc(O)c(CC=C(C)C)c4)c(=O)oc3c2C)OC1(C)C = 86.5
• COc1cccc(OCCCN)c1-c1cc(Nc2cnc(C#N)cn2)n[nH]1 + COC1C(OC(N)=O)C(O)C(Oc2ccc3c(O)c(NC(=O)c4ccc(O)c(CC=C(C)C)c4)c(=O)oc3c2C)OC1(C)C = 96.4
